- test: chemical genetic growth profiling, strain panel (AID 1159580);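 further: tested at 20 µM; growth read once vehicle control cultures reached saturation at 30 °C; 1 = growth at the plate median or of vehicle wells; lower values mean less growth of the strain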
- protocol.conditions: S. cerevisiae deletion strains, growth OD, locus YBR160W, strain CDC28, stronger effect = lower value
Out of some 5,500 compounds screened, about 2,000 (36%) were called active. Roughly 18% stayed inconclusive and do not appear here. Some of the results follow.
Parameter: normalized growth. Scope: all listed entries.

# example entries with known answers
- structure.as.smiles: "C[C@@H](Nc1ncnc2sc3c(c12)CCCC3)c1ccccc1"
  measured.property: "normalized growth"
  obs.value: "0.942 (inactive)"
- structure.as.smiles: "O=S(=O)(Nc1csc(C(F)(F)F)c1-c1ccccc1)c1cc(Br)c(Br)s1"
  measured.property: "normalized growth"
  obs.value: "0.961 (inactive)"
- structure.as.smiles: "N#Cc1ccc(Oc2sccc2[N+](=O)[O-])cc1"
  measured.property: "normalized growth"
  obs.value: "0.992 (inactive)"

Quick one: normalized growth of Clc1ccc(Oc2ccnc3cc(Cl)ccc23)cc1 ? 0.918 (inactive)

Lookup Clc1ccc(CSc2nccn2-c2cc(Cl)ccc2Cl)cc1 0.963 (inactive)

Lookup Cc1noc(C)c1S(=O)(=O)Nc1csc(C(F)(F)F)c1-c1ccccc1 0.982 (inactive)

###

- test: chemical genetic growth profiling, strain panel (AID 1159580);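 further: tested at 20 µM; growth read once vehicle control cultures reached saturation at 30 °C; 1 = growth at the plate median or of vehicle wells; lower values mean less growth of the strain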
- protocol.conditions: S. cerevisiae deletion strains, growth OD, locus YER111C, strain swi4, stronger effect = lower value
About 2,000 (36%) of roughly 5,500 compounds were called active. Roughly 18% stayed inconclusive and do not appear here. This is one part of the list. Where a SMILES comes first, the peptide text is derived from it.
measured.property: normalized growth
// no unit, no text: just the number

- compound: "C[C@]12C=CC(=O)C=C1CCC1C2[C@@H](O)C[C@@]2(C)C1CC[C@]2(O)C(=O)CO (some centres not stated)"
  normalized growth: 0.999

Quick one: normalized growth of Fc1ccc([C@@H]2CCNC[C@H]2COc2ccc3c(c2)OCO3)cc1 ? 0.984

Lookup CN[C@@H]1C(OC2[C@H](O[C@H]3[C@H](O)[C@@H](O)[C@H](N=C(N)N)[C@@H](O)[C@@H]3N=C(N)N)OC(C)[C@]2(O)CO)OC(CO)C(O)C1O (some centres not stated) 1.01

Lookup COc1ccc2c(c1)OCC(Cc1ccc(O)c(OC)c1)C2=O (configuration not stated) 0.999

Lookup CC(=O)N[C@@H](CC(=O)O)C(=O)N[C@@H](CCC(=O)O)C(=O)O (Ac-Asp-Glu-OH) 0.993

Lookup CC(=O)N[C@@H](CCC(=O)O)C(=O)O 1.02

Lookup COc1ccnc(CS(=O)c2nc3ccc(OC(F)F)cc3[nH]2)c1OC (configuration not stated) 1.05

Lookup COc1ccc2c(c1)OCC(Cc1ccc(OC)c(OC)c1)C2=O (configuration not stated) 0.982

Lookup NC(=O)NC1NC(=O)NC1=O (configuration not stated) 1.01

###

- test: chemical genetic growth profiling, strain panel (AID 1159580);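 further: tested at 20 µM; growth read once vehicle control cultures reached saturation at 30 °C; 1 = growth at the plate median or of vehicle wells; lower values mean less growth of the strain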
- protocol.conditions: S. cerevisiae deletion strains, growth OD, locus YAL040C, strain CLN3, stronger effect = lower value
In all, about 5,500 compounds went through this assay and about 2,000 (36%) were called active. Another 18% or so got no clear call; they are omitted. The list shows a part of the results.
Parameter: normalized growth. Scope: all listed entries.
// no unit, no text: just the number

# example entries with known answers
- compound: "CN(C)C/C=C(/c1ccc(Br)cc1)c1cccnc1"
  obs.value: 0.964
- compound: "Cc1nc(-c2ccc(-c3ccc(C(=O)N4CCc5cc6c(cc54)C4(CCN(C)CC4)CO6)cc3)c(C)c2)no1"
  obs.value: 0.967
- compound: "O=C(O)/C=C/C(O)c1ccc(Cl)cc1 (centres undefined)"
  obs.value: 1.07
- compound: "COc1ccc(NC(=O)c2ccc(-c3ccc(-c4noc(C)n4)cc3C)cc2)cc1N1CCN(C)CC1"
  obs.value: 1.05
- compound: "CSc1ccc(C(=O)c2[nH]c(=O)[nH]c2C)cc1"
  obs.value: 1.06
- compound: "CCCN1CCC[C@@H]2Cc3[nH]ncc3C[C@H]21"
  obs.value: 1.02

Quick one: normalized growth of COc1cc2c(CCNC(C)=O)c[nH]c2cc1Cl ? 0.983

Lookup COc1ccc2c(c1)c(CC(=O)O)c(C)n2Cc1ccc(Cl)cc1 0.96
